Molecular target: PpYLKTK (pY705 Stat3) (Homo sapiens)
Construct: the Stat3-derived pTyr705 peptide, PpYLKTK
Assay: SPR binding to Stat3-derived pTyr705 peptide PpYLKTK
Details: immobilized on sensor chip, PpYLKTK as analyte
readoutLabel: pKd
Would you please state pKd, meaning minus log10 of the concentration in mol/L, as a bare number?

Response field pKd (PpYLKTK (pY705 Stat3) (Homo sapiens)) for item Stat3 SH2 domain: Purified His-tagged Stat3 SH2 domain, recombinant protein expressed in BL21(DE3) cells (FISKERERAILSTKPPGTFLLRFSESSK) : 5.80

----------
Biological target: GpYLPQTV (IL-6R/gp130) (Homo sapiens, UniProt P40189, S904G)
Conditions: SPR; SPI, Stat3 SH2 domain or Stat3 immobilized on sensor chip, GpYLPQTV as analyte
readoutLabel: pKd
In simple prose, pKd is minus the logarithm base ten of a concentration in moles per litre.

Form field, pKd with GpYLPQTV (IL-6R/gp130) (Homo sapiens, UniProt P40189, S904G), item Stat3 SH2 domain: Purified His-tagged Stat3 SH2 domain, recombinant protein expressed in BL21(DE3) cells (FISKERERAILSTKPPGTFLLRFSESSK) : 7.52

----------
Target: PEpYINQS (pY1068EGFR) (Homo sapiens, UniProt P00533)
Construct: the pY1068 of EGFR, PEpYINQS
Test: SPR binding to EGFR pY1068 peptide PEpYINQS
Conditions: immobilized on sensor chip, PEpYINQS as analyte
readoutLabel: Kd (nM)
Reply numerically in nM, unit not repeated.

Entry Stat3 SH2 domain: Purified His-tagged Stat3 SH2 domain, recombinant protein expressed in BL21(DE3) cells (FISKERERAILSTKPPGTFLLRFSESSK) , tested on PEpYINQS (pY1068EGFR) (Homo sapiens, UniProt P00533), has a reported Kd of 400
